Each entry below carries its recorded cell viability.
# Test system: MOLM14
# test protocol: cell viability relative to vehicle control; higher = less cytotoxic;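 also: after 48 h exposure read by CellTiter-Glo luminescence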
# test parameters: 10 µM; SRSF2 genotype: SRSF2 P95H/wt
Counter-ions that a name gives are not always drawn.
measured metric: cell viability (%)

>>> quantitative_result("C[C@@H]1COCCN1c1cc(C2([S@](C)(=N)=O)CC2)nc(-c2cc[nH]c3nccc2-3)n1")
11.1
>>> quantitative_result("C[C@@H]1C(=O)O[C@H]2C[C@@]34[C@H]5C[C@@H](C(C)(C)C)[C@]36[C@@H](OC(=O)[C@@H]6O)O[C@@]4(C(=O)O5)[C@]21O [Ginkgolide A]")
105
>>> quantitative_result("COc1ccccc1 [Anisole]")
94.6
>>> quantitative_result("COc1ccc2c(c1)[C@]1(C[C@H]1c1ccc3c(/C=C/c4ccc(CN5C[C@@H](C)O[C@@H](C)C5)cc4)n[nH]c3c1)C(=O)N2")
14.5
>>> quantitative_result("CCC1=C[C@@H]2CN(C1)Cc1c([nH]c3ccccc13)[C@@](C(=O)OC)(c1cc3c(cc1OC)N(C)[C@H]1[C@@](O)(C(=O)OC)[C@H](OC(C)=O)[C@]4(CC)C=CCN5CC[C@]31[C@@H]54)C2 [Vinorelbine Tartrate]")
0.68
>>> quantitative_result("CC(=O)OCOC(=O)CN(CC(=O)OCOC(C)=O)c1ccccc1OCCOc1ccccc1N(CC(=O)OCOC(C)=O)CC(=O)OCOC(C)=O")
0.2
>>> quantitative_result("Cc1c(Cl)cccc1Nc1ccccc1C(=O)O [Tolfenamic acid]")
99.8

* * *

Each entry below carries its recorded cell viability.
# Test system: MOLM14
# test protocol: cell viability relative to vehicle control; higher = less cytotoxic
# test parameters: 10 µM; SRSF2 genotype: SRSF2 P95H/wt
Counter-ions that a name gives are not always drawn.
measured metric: cell viability (%)

>>> quantitative_result("CCc1cc(Nc2nccc(-c3c(-c4ccc(OC)c(C(=O)Nc5c(F)cccc5F)c4)nc4ccccn34)n2)c(OC)cc1N1CCC(N2CCN(S(C)(=O)=O)CC2)CC1")
105
>>> quantitative_result("Nc1nc2c(ncn2COCCO)c(=O)[nH]1")
103
>>> quantitative_result("NC(=O)c1ccc(I)c([N+](=O)[O-])c1")
98.6
>>> quantitative_result("NCCCCCNCC12CC3CC(CC(C3)C1)C2 [IEM 1754 dihydrobroMide]")
103
>>> quantitative_result("CCCCC1=NC2(CCCC2)C(=O)N1Cc1ccc(-c2ccccc2-c2nnn[nH]2)cc1")
90

* * *

Each entry below carries its recorded cell viability.
# Tested on: MARIMO
# test protocol: cell viability relative to vehicle control; higher = less cytotoxic
# test parameters: 10 µM; SRSF2 genotype: SRSF2 wt/wt
Structures can show the parent of a compound that is named as a salt.
measured metric: cell viability (%)

>>> quantitative_result("CC1(C)S[C@@H]2[C@H](NC(=O)[C@H](N)c3ccc(O)cc3)C(=O)N2[C@H]1C(=O)O")
98.5
>>> quantitative_result("CC(C)(C)C#Cc1cc(N(C(=O)[C@H]2CC[C@H](C)CC2)[C@H]2CC[C@H](O)CC2)c(C(=O)O)s1")
115
>>> quantitative_result("CCOc1nc2cccc(C(=O)OCc3oc(=O)oc3C)c2n1Cc1ccc(-c2ccccc2-c2noc(=O)[nH]2)cc1")
108
>>> quantitative_result("CCCCC[C@](C)(O)/C=C/[C@@H]1[C@@H](C/C=C\\CCCC(=O)O)[C@@H](O)C[C@H]1O")
91.1
>>> quantitative_result("Clc1ccc(COC(Cn2ccnc2)c2ccc(Cl)cc2Cl)c(Cl)c1 (stereo not given)")
73
>>> quantitative_result("Cc1nc(Nc2ccc(F)cc2)nc(N2CCc3ccccc3C2C)c1C (stereo not given) [Revaprazan Hydrochloride]")
56.4
>>> quantitative_result("NC(=O)Nc1sc(-c2ccc(F)cc2)cc1C(N)=O")
50
>>> quantitative_result("COc1ccc(C2=NC(c3ccc(Cl)cc3)C(c3ccc(Cl)cc3)N2C(=O)N2CCNC(=O)C2)c(OC(C)C)c1 (stereo not given)")
97.1
>>> quantitative_result("COc1nc(OCc2cccc(-c3ccccc3)c2C)ccc1CNCCNC(C)=O")
59
>>> quantitative_result("COC[C@H](NC(=O)c1cnc(C)s1)C(=O)N[C@@H](COC)C(=O)N[C@@H](Cc1ccccc1)C(=O)[C@@]1(C)CO1")
0.74
>>> quantitative_result("C[C@]1(O)C[C@@H](O)[C@]2(O)C=CO[C@@H](O[C@H]3O[C@H](CO)[C@@H](O)[C@H](O)[C@H]3O)[C@@H]21 [Harpagide]")
98.7
>>> quantitative_result("Nc1nc(Cl)nc2c1ncn2[C@H]1C[C@H](O)[C@@H](CO)O1")
8.19
>>> quantitative_result("O=C(O)c1ccc(-c2ccc(C=C3SC(=S)N(Cc4ccccc4)C3=O)o2)cc1")
96.4
>>> quantitative_result("COc1c(C)cnc(Cn2cnc3c(Cl)nc(N)nc32)c1C")
25.9
>>> quantitative_result("Cc1cc(=O)c2c(O)c3c(cc2o1)OC(C)(C)[C@@H](O[C@@H]1O[C@H](CO)[C@@H](O)[C@H](O)[C@H]1O)C3")
98.7
